# Experimental System: ZIKV NS2B/NS3 (Zika virus, UniProt A0A024B7W1, R1467A/R1531G)
# Test Protocol: ZIKV protease relative inhibition assay (fluorometric, Bz-Nle-Lys-Arg-Arg-AMC 10 µM)
# Type: biochemical
# Conditions Used: 50 µM inhibitor, ZIKV protease 10 nM, substrate 10 µM
Values of ZIKV % inhibition at 50 µM greater than or equal to 50% map to fulfilled; values below map to not fulfilled.

Smiles Structure: O=C(Nc1nc2cc(O)c(O)cc2s1)[C@H]1CCCN1S(=O)(=O)c1ccccc1[N+](=O)[O-]
Class Label: fulfilled

Smiles Structure: O=C(Nc1nc2cc(O)c(O)cc2s1)[C@@H]1CCCN1S(=O)(=O)c1ccc(C(F)(F)F)cc1
Class Label: not fulfilled

Smiles Structure: O=C(Nc1nc2cc(O)c(O)cc2s1)[C@@H]1CCCCN1S(=O)(=O)c1ccccc1C(F)(F)F
Class Label: fulfilled

Smiles Structure: O=C(Nc1nc2cc(O)c(O)cc2s1)[C@H]1CCCCN1S(=O)(=O)c1cccc(C(F)(F)F)c1
Class Label: not fulfilled

Smiles Structure: O=C(Nc1nc2cc(O)c(O)cc2s1)[C@H]1CCCCN1S(=O)(=O)c1ccc(C(F)(F)F)cc1
Class Label: not fulfilled

Smiles Structure: O=C(Nc1nc2cc(O)c(O)cc2s1)[C@H]1CCCCN1S(=O)(=O)c1ccccc1C(F)(F)F
Class Label: not fulfilled

----------
# Experimental System: DENV NS2B/NS3 (Dengue virus type 2, UniProt P29990)
# Construct: the hydrophilic 40-residue core domain of NS2B (NS2B(H)-NS3pro); The used DENV protease construct contains the protease domain of NS3
# Sequence (P29990 1398-1437): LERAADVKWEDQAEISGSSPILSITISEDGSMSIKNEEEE
# Sequence (P29990 1476-1653): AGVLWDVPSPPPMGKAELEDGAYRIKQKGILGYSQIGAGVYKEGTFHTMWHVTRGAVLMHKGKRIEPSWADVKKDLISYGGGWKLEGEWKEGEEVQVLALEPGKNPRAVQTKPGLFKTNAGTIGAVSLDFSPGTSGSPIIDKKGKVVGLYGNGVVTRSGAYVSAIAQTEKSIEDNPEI
# Test Protocol: biochemical
# Conditions Used: read-out: DENV % inhibition at 50 µM; 50 µM inhibitor, DENV-2 protease 100 nM, substrate 50 µM

Smiles Structure: O=C(Nc1nc2cc(O)c(O)cc2s1)[C@@H]1CCCCN1S(=O)(=O)c1cccc(C(F)(F)F)c1
inhibition at 50 µM, %: 55.9

Smiles Structure: O=C(Nc1nc2cc(O)c(O)cc2s1)[C@H]1CCCN1S(=O)(=O)c1ccc([N+](=O)[O-])cc1
inhibition at 50 µM, %: 40.7

Smiles Structure: O=C(Nc1nc2cc(O)c(O)cc2s1)[C@H]1CCCN1S(=O)(=O)c1ccccc1[N+](=O)[O-]
inhibition at 50 µM, %: 13.5

Smiles Structure: O=C(Nc1nc2cc(O)c(O)cc2s1)[C@@H]1CCCCN1S(=O)(=O)c1ccc([N+](=O)[O-])cc1
inhibition at 50 µM, %: 59.8

Smiles Structure: O=C(Nc1nc2cc(O)c(O)cc2s1)[C@@H]1CCCCN1S(=O)(=O)c1ccccc1[N+](=O)[O-]
inhibition at 50 µM, %: 29.6

Smiles Structure: O=C(Nc1nc2cc(O)c(O)cc2s1)[C@@H]1CCCCN1S(=O)(=O)c1ccc(C(F)(F)F)cc1
inhibition at 50 µM, %: 51.3

Smiles Structure: O=C(Nc1nc2cc(O)c(O)cc2s1)[C@H]1CCCN1S(=O)(=O)c1cccc([N+](=O)[O-])c1
inhibition at 50 µM, %: 16.9

Smiles Structure: O=C(Nc1nc2cc(O)c(O)cc2s1)[C@@H]1CCCCN1S(=O)(=O)c1ccccc1C(F)(F)F
inhibition at 50 µM, %: 58.7
